STUDY TARGET: capture de (³H)dopamine par les synaptosomes striataux de rat (Rattus norvegicus)
Construct: Les culots résultants P2 contenant les synaptosomes bruts sont ensuite utilisés sans purification supplémentaire; from tissue; host or cells: Wistar rat striatum, crude synaptosomes (P2 pellet)
ASSAY NOTES: biochemical
TEST PARAMETERS: rat striatal synaptosomes, 5 nM (3H)DA, 5 min at 30°C; read-out: [3H] DA IC50
OBSERVABLE: log10 IC50 (log10 of the value in nM)

[[record]]
compound = "CC(=O)OCC1CCCN(C2(c3cc4ccccc4s3)CCCCC2)C1 (centres unmarked)"
measured_number = 1.65

[[record]]
compound = "CC1CCCC(c2cc3ccccc3s2)(N2CCCCC2)C1 (centres unmarked)"
measured_number = 2.78

[[record]]
compound = "CC1CCCCC1(c1cc2ccccc2s1)N1CCCCC1 (centres unmarked)"
measured_number = 3.11

[[record]]
compound = "CC1CC(C)CN(C2(c3cc4ccccc4o3)CCCC(C)C2)C1 (centres unmarked)"
measured_number = 3.44

[[record]]
compound = "c1ccc2sc(C3(N4CCC5(CC4)OCCO5)CCCCC3)cc2c1"
measured_number = 1.82


###

STUDY TARGET: recapture de la dopamine (Rattus norvegicus)
Construct: Cultures primaires de neurones; endogenous in cells; host or cells: primary neurons from substantia nigra of 14-day rat embryos
ASSAY NOTES: Inhibition of (3H)DA reuptake in primary cultured neurons (Example 39)
Type: cell-based
TEST PARAMETERS: cultured neurons from rat embryos
OBSERVABLE: Recapture de (³H)DA nH (nombre de Hill)

[[record]]
compound = "C[C@H]1CC[C@@](c2cc3ccccc3s2)(N2CCCCC2)CC1 [composé n^o 21]"
result = "1,07"

[[record]]
compound = "CC1CC(C)CN(C2(c3cc4ccccc4s3)CCCCC2)C1 (stereo not shown) [composé n^o 6]"
result = "0,95"

[[record]]
compound = "CC1CCCN(C2(c3cc4ccccc4s3)CCCCC2)C1 (stereo not shown) [composé n^o 2]"
result = "0,95"

[[record]]
compound = "OC1CCN(C2(c3cc4ccccc4s3)CCCCC2)CC1 [composé 26]"
result = "1,09"


###

STUDY TARGET: capture de (³H)dopamine par les synaptosomes striataux de rat (Rattus norvegicus, UniProt P23977)
Construct: Les culots résultants P2 contenant les synaptosomes bruts sont ensuite utilisés sans purification supplémentaire; from tissue; host or cells: Wistar rat striatum, crude synaptosomes (P2 pellet)
ASSAY NOTES: biochemical
TEST PARAMETERS: rat striatal synaptosomes, 5 nM (3H)DA, 5 min at 30°C; read-out: [3H] DA IC50
pIC50: −log10 of the molar value.
Collected pIC50 values appear next to each entry.
OBSERVABLE: pIC50

[[record]]
compound = "CC1CC(C)CN([C@]2(c3cc4ccccc4s3)CC[C@H](C)CC2)C1 (relative stereo)"
observable = "pIC50"
measured_number = 6.37

[[record]]
compound = "c1ccc2cc(C3(N4CCCCC4)CCCCC3)ccc2c1"
observable = "pIC50"
measured_number = 7.44

[[record]]
compound = "C[C@H]1CCCC[C@@]1(c1cc2ccccc2s1)N1CCCCC1 (relative stereo)"
observable = "pIC50"
measured_number = 7.51

[[record]]
compound = "ICC1CCCN(C2(c3cc4ccccc4s3)CCCCC2)C1 (centres unmarked)"
observable = "pIC50"
measured_number = 7.27

[[record]]
compound = "C[C@H]1CC[C@@](c2cc3ccccc3s2)(N2CCCCC2)CC1"
observable = "pIC50"
measured_number = 8.03

[[record]]
compound = "OCC1CCCN(C2(c3cc4ccccc4s3)CCCCC2)C1 (centres unmarked)"
observable = "pIC50"
measured_number = 7.68

[[record]]
compound = "CC1CC(C)CN(C2(c3cc4ccccc4s3)CCCCC2)C1 (centres unmarked)"
observable = "pIC50"
measured_number = 7.83

[[record]]
compound = "C[C@H]1CCC[C@@](c2cc3ccccc3s2)(N2CCCCC2)C1 (relative stereo)"
observable = "pIC50"
measured_number = 6.16


###

STUDY TARGET: recapture de la dopamine (Rattus norvegicus, UniProt P23977)
Construct: Cultures primaires de neurones; endogenous in cells
Sequence (P23977 whole entry): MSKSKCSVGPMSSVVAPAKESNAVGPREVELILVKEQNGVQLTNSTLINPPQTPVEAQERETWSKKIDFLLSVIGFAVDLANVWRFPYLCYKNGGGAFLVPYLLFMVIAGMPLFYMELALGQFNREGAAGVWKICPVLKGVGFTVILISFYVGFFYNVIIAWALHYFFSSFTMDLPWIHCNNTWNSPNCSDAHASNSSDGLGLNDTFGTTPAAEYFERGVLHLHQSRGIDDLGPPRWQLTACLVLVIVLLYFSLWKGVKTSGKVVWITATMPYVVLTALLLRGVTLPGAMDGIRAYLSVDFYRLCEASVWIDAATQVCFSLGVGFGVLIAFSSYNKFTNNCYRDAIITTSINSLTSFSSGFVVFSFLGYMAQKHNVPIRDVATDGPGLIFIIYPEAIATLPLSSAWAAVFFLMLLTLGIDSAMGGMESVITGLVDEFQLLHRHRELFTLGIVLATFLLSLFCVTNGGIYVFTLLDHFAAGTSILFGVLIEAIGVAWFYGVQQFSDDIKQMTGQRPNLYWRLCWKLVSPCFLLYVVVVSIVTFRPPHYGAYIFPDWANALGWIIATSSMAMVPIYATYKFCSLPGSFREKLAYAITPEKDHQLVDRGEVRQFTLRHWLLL
ASSAY NOTES: Inhibition of (3H)DA reuptake in primary cultured neurons (Example 39)
TEST PARAMETERS: cultured neurons from rat embryos, 10⁻⁸M (3H)DA, 10 min at 37°C; read-out: Recapture de (³H)DA IC 50
Text: Exemple 39 : Etude de l'inhibition de la recapture de la dopamine et de la noradrénaline sur des neurones en culture. a) Cultures primaires de neurones. La substance noire, structure riche en cellules dopaminergiques, ou le locus coeruleus, contenant les corps cellulaires noradrénergiques, sont disséqués à partir d'embryons de rats de 14 jours, âge auquel les cellules ont terminé leur mitose. Les cellules sont dissociées mécaniquement dans un milieu sans calcium ni magnésium. […]
pIC50: −log10 of the molar value.
OBSERVABLE: pIC50

[[record]]
compound = "OC1CCN(C2(c3cc4ccccc4s3)CCCCC2)CC1"
observable = "pIC50"
measured_number = 7.77

[[record]]
compound = "C[C@H]1CC[C@@](c2cc3ccccc3s2)(N2CCCCC2)CC1"
observable = "pIC50"
measured_number = 8.10

[[record]]
compound = "CC1CCCN(C2(c3cc4ccccc4s3)CCCCC2)C1 (stereo not shown)"
observable = "pIC50"
measured_number = 7.15

[[record]]
compound = "CC1CC(C)CN(C2(c3cc4ccccc4s3)CCCCC2)C1 (stereo not shown)"
observable = "pIC50"
measured_number = 8.83


###

STUDY TARGET: récepteur de la PCP
ASSAY NOTES: Competition binding at the (3H)TCP sites on rat brain homogenates (Example 36)
TEST PARAMETERS: 1 nM (3H)TCP, 30 min at 25°C
Collected IC50 values appear next to each entry.
OBSERVABLE: IC50 (µM)

[[record]]
compound = "C[C@H]1CC[C@](c2cc3ccccc3s2)(N2CCCCC2)CC1 [composé n^o 20]"
readout_units = "µM"
lt_gt_eq = "="
measured_number = 112

[[record]]
compound = "CCCN(CCC)C1(c2cc3ccccc3s2)CCCCC1 [composé no 3]"
readout_units = "µM"
lt_gt_eq = "="
measured_number = 424

[[record]]
compound = "C[C@H]1CC[C@@](c2cc3ccccc3s2)(N2CCCCC2)CC1 [composé n^o 21]"
readout_units = "µM"
lt_gt_eq = ">"
measured_number = 100

[[record]]
compound = "ICC1CCCN(C2(c3cc4ccccc4s3)CCCCC2)C1 (centres unmarked) [composé n^o 11]"
readout_units = "µM"
lt_gt_eq = ">"
measured_number = 100

[[record]]
compound = "CC1CC(C)CN(C2(c3cc4ccccc4s3)CCCCC2)C1 (centres unmarked) [composé n^o 6]"
readout_units = "µM"
lt_gt_eq = ">"
measured_number = 100

[[record]]
compound = "CC1CCCN(C2(c3cc4ccccc4s3)CCCCC2)C1 (centres unmarked) [composé n^o 2]"
readout_units = "µM"
lt_gt_eq = "="
measured_number = 52

[[record]]
compound = "c1ccc2sc(C3(N4CCCCC4)CCCCC3)cc2c1 [BTCP, reference compound]"
readout_units = "µM"
lt_gt_eq = "="
measured_number = 20

[[record]]
compound = "BrCC1CCCN(C2(c3cc4ccccc4s3)CCCCC2)C1 (centres unmarked) [composé n^o 10]"
readout_units = "µM"
lt_gt_eq = ">"
measured_number = 100

[[record]]
compound = "OC1CCN(C2(c3cc4ccccc4s3)CCCCC2)CC1 [composé 26]"
readout_units = "µM"
lt_gt_eq = "="
measured_number = 31.9

[[record]]
compound = "c1ccc2sc(C3(N4CCC5(CC4)OCCO5)CCCCC3)cc2c1 [composé n^o 5]"
readout_units = "µM"
lt_gt_eq = ">"
measured_number = 100

[[record]]
compound = "c1ccc2oc(C3(N4CCCCC4)CCCCC3)cc2c1 [composé n^o 4]"
readout_units = "µM"
lt_gt_eq = "="
measured_number = 40


###

Collected pIC50 values appear next to each entry.
STUDY TARGET: capture de noradrénaline (Rattus norvegicus)
Construct: préparations synaptosomales brutes d'hypothalamus de rats
Sequence (Q63380 1-617): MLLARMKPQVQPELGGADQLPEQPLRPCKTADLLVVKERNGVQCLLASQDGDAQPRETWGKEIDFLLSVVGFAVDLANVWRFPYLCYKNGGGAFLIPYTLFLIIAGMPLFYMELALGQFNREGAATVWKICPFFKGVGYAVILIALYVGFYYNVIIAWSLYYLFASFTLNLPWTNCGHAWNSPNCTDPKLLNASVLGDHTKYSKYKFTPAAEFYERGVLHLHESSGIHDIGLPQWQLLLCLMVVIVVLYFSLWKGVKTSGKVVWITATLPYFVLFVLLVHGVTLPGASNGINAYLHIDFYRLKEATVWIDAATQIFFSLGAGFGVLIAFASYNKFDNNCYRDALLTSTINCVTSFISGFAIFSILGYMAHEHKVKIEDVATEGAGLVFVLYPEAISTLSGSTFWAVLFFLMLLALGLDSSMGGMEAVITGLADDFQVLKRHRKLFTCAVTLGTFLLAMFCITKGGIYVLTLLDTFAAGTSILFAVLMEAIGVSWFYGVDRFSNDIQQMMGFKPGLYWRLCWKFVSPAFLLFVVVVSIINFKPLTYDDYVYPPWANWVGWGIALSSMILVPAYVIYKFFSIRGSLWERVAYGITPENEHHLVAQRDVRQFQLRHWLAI
ASSAY NOTES: Tritiated noradrenaline uptake by crude synaptosomal preparations of rat hypothalamus (Example 37)
TEST PARAMETERS: rat hypothalamus synaptosomes, 50 nM tritiated noradrenaline, 10 min at 37°C; read-out: Capture 3H-NA IC₅₀
pIC50: −log10 of the molar value.
OBSERVABLE: pIC50

[[record]]
molecule = "CC1CCCN(C2(c3cc4ccccc4s3)CCCCC2)C1 (centres unmarked)"
study_target = "capture de noradrénaline (Rattus norvegicus)"
measured_number = 7.40

[[record]]
molecule = "CCCN(CCC)C1(c2cc3ccccc3s2)CCCCC1"
study_target = "capture de noradrénaline (Rattus norvegicus)"
measured_number = 7.64

[[record]]
molecule = "c1ccc2oc(C3(N4CCCCC4)CCCCC3)cc2c1"
study_target = "capture de noradrénaline (Rattus norvegicus)"
measured_number = 7.65

[[record]]
molecule = "C[C@H]1CC[C@@](c2cc3ccccc3s2)(N2CCCCC2)CC1"
study_target = "capture de noradrénaline (Rattus norvegicus)"
measured_number = 7.78

[[record]]
molecule = "C[C@H]1CC[C@](c2cc3ccccc3s2)(N2CCCCC2)CC1"
study_target = "capture de noradrénaline (Rattus norvegicus)"
measured_number = 7.03

[[record]]
molecule = "CC1CC(C)CN(C2(c3cc4ccccc4s3)CCCCC2)C1 (centres unmarked)"
study_target = "capture de noradrénaline (Rattus norvegicus)"
measured_number = 7.90

[[record]]
molecule = "c1ccc2sc(C3(N4CCCCC4)CCCCC3)cc2c1 [BTCP, reference compound]"
study_target = "capture de noradrénaline (Rattus norvegicus)"
measured_number = 7.74

[[record]]
molecule = "BrCC1CCCN(C2(c3cc4ccccc4s3)CCCCC2)C1 (centres unmarked)"
study_target = "capture de noradrénaline (Rattus norvegicus)"
measured_number = 6.71

